Some compounds, each annotated with its measured Ki.
target: human 5-HT6 receptor (Homo sapiens, UniProt P50406); experiment: Binding assay for human 5-HT6 receptor ([3H]LSD radioligand); conditions: human recombinant receptor, [3H]LSD 1.5 nM, 60 minutes at 37° C.; read-out: Radiogland binding data at 5-HT6 R (h) Ki
Sequence (P50406 whole entry): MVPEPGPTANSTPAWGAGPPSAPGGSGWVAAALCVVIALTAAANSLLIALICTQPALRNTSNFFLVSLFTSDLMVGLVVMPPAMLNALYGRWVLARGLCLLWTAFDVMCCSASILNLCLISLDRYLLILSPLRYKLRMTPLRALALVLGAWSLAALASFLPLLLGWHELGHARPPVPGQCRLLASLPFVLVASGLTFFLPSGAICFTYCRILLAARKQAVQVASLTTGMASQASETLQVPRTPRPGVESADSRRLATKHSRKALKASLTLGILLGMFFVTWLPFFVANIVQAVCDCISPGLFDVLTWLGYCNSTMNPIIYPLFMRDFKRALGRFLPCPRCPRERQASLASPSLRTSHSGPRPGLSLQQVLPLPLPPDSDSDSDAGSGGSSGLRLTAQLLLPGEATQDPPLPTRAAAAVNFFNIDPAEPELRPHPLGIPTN

Look over these answered cases.
structure_as_smiles=COc1ccc(S(=O)(=O)n2ccc3c(CN4CCN(C)CC4)cccc32)c(Br)c1 measured_parameter=Ki recorded_value="8.58 nM"
structure_as_smiles=CN1CCN(Cc2cccc3c2c(Br)cn3S(=O)(=O)c2cccc(Cl)c2)CC1 measured_parameter=Ki recorded_value="75.3 nM"
structure_as_smiles=CN1CCN(Cc2cccc3c2c(Br)cn3S(=O)(=O)c2ccc(F)cc2)CC1 measured_parameter=Ki recorded_value="122 nM"

Alright, here's another compound for you.
Request: Which Ki is reported for this compound? Cc1ccc(S(=O)(=O)n2ccc3c(CN4CCN(C)CC4)cccc32)cc1
Response: 7.92 nM
